# ASSAY INFO: NCI Yeast Anticancer Drug Screen. Data for the sgs1 mgt1 strain (AID 161)
# RUN PARAMETERS: S. cerevisiae sgs1 mgt1 strain, at 50.0 µM
About 79,000 compounds went through this panel and 15% of them were active in at least one assay; those are over-represented in the sample as a whole. Activity calls are given as the source filed them. Cut-off read from the data, not from the text of the source: active = growth inhibition above about 70%; inactive = the rest.
Log the outcome using a class from YES (active), NO (inactive)

Worked cases, answers included:
| COMPOUND | CATEGORY |
| --- | --- |
| O=C(N/C(=C\c1ccc(Cl)cc1)c1nc2ccccc2s1)c1ccccc1 | YES |
| COc1ccc(CCCCC(=O)O)cc1O | NO |
| O=[N+]([O-])c1ccc2nc(-c3ccccn3)[nH]c2c1 | YES |
| Cc1cc(O)c2c(c1)OC1(C)CCC3C(C)(C)CCCC34COC2C14 (stereo unspecified) | YES |
| COc1ccc(/C=N/NS(=O)(=O)c2ccc(C)cc2)cc1 | YES |

# ---- query compound ----
What outcome does the record of this test show for Fc1ccc(NC(=S)SCc2ccccc2)cc1 ? YES
